# assay-text: The drug is tested on Eggerthella lenta strain: ATCC25559 for biotransformation. The drug concentrations were measured before and after a 12-h incubation by liquid-chromatography-coupled mass spectrometry (LC–MS)
# run-conditions: 2 µM
measured-quantity: Bacterial Biotransformation

>>> assay_result("COC1=CC(=O)C[C@@H](C)[C@]12Oc1c(Cl)c(OC)cc(OC)c1C2=O")
"Compound NOT metabolized"
>>> assay_result("Nc1nc2ccc(OC(F)(F)F)cc2s1")
"Compound NOT metabolized"
>>> assay_result("CO[C@]12C[C@@H](COC(=O)c3cncc(Br)c3)CN(C)[C@@H]1Cc1cn(C)c3cccc2c13")
"Compound NOT metabolized"
>>> assay_result("COc1ccc([C@@H]2Sc3ccccc3N(CCN(C)C)C(=O)[C@@H]2OC(C)=O)cc1")
"Compound metabolized"
>>> assay_result("CC(=O)OCC(=O)[C@@]1(O)[C@@H](C)C[C@H]2[C@@H]3CCC4=CC(=O)C=C[C@]4(C)[C@@]3(F)[C@@H](O)C[C@@]21C [BETAMETHASONE ACETATE]")
"Compound NOT metabolized"
>>> assay_result("CCCCCCOC(=O)/N=C(/N)c1ccc(NCc2nc3cc(C(=O)N(CCC(=O)OCC)c4ccccn4)ccc3n2C)cc1.CS(=O)(=O)O [DABIGATRAN ETEXILATE MESYLATE]")
"Compound NOT metabolized"
>>> assay_result("CN1[C@@H]2CC[C@H]1C[C@@H](OC(=O)C(CO)c1ccccc1)C2 (stereo partly specified)")
"Compound NOT metabolized"
>>> assay_result("CC(C)(C)NCC(O)c1cc(Cl)c(N)c(Cl)c1 (stereo unspecified)")
"Compound NOT metabolized"
>>> assay_result("CNC(=C[N+](=O)[O-])NCCSCc1csc(CN(C)C)n1")
"Compound NOT metabolized"
>>> assay_result("CN(C)C(=O)Oc1cc(OC(=O)N(C)C)cc(C(O)CNC(C)(C)C)c1 (stereo unspecified)")
"Compound NOT metabolized"
>>> assay_result("COc1c(C)c2c(c(O)c1C/C=C(\\C)CCC(=O)OCCN1CCOCC1)C(=O)OC2 [MYCOPHENOLATE MOFETIL]")
"Compound metabolized"
>>> assay_result("CC(=O)O[C@H]1C(=O)[C@@]2(C)[C@H]([C@H](OC(=O)c3ccccc3)[C@]3(O)C[C@H](OC(=O)[C@H](O)[C@@H](NC(=O)c4ccccc4)c4ccccc4)C(C)=C1C3(C)C)[C@]1(OC(C)=O)CO[C@@H]1C[C@@H]2O")
"Compound NOT metabolized"
>>> assay_result("CN(C)C(=O)C(CCN1CCC(O)(c2ccc(Cl)cc2)CC1)(c1ccccc1)c1ccccc1 [LOPERAMIDE]")
"Compound NOT metabolized"
>>> assay_result("CCOc1cc(CC(=O)N[C@@H](CC(C)C)c2ccccc2N2CCCCC2)ccc1C(=O)O [REPAGLINIDE]")
"Compound NOT metabolized"
>>> assay_result("CCCc1nc(C(C)(C)O)c(C(=O)OCc2oc(=O)oc2C)n1Cc1ccc(-c2ccccc2-c2nnn[nH]2)cc1")
"Compound metabolized"
>>> assay_result("O=C(O)CCC(=O)O.O=C(O[C@H]1CN2CCC1CC2)N1CCc2ccccc2[C@@H]1c1ccccc1 [SOLIFENACIN SUCCINATE]")
"Compound NOT metabolized"
>>> assay_result("CCN(CC)CC#CCOC(=O)C(O)(c1ccccc1)C1CCCCC1.Cl (stereo unspecified) [OXYBUTYNIN CHLORIDE]")
"Compound NOT metabolized"
>>> assay_result("CC[C@@]1(O)C(=O)OCc2c1cc1n(c2=O)Cc2cc3c(CN(C)C)c(O)ccc3nc2-1")
"Compound NOT metabolized"
>>> assay_result("CN1CCc2cccc3c2[C@H]1Cc1ccc(O)c(O)c1-3")
"Compound NOT metabolized"
>>> assay_result("CCN(CC)CCOCCOC(=O)C1(c2ccccc2)CCCC1.O=C(O)CC(O)(CC(=O)O)C(=O)O [CARBETAPENTANE CITRATE]")
"Compound metabolized"
>>> assay_result("COc1ccc2c(c1)c(CC(=O)O)c(C)n2C(=O)c1ccc(Cl)cc1")
"Compound NOT metabolized"
>>> assay_result("CCN(CC)C(=O)C1(c2ccccc2)CC1CN (stereo unspecified)")
"Compound NOT metabolized"
>>> assay_result("C#C[C@]1(O)CC[C@H]2[C@@H]3CCC4=Cc5oncc5C[C@]4(C)[C@H]3CC[C@@]21C")
"Compound metabolized"
>>> assay_result("OC(c1cc(C(F)(F)F)nc2c(C(F)(F)F)cccc12)C1CCCCN1 (stereo unspecified)")
"Compound metabolized"
>>> assay_result("CN(C(=O)CN(CCO)CC(=O)N(C)C(C)(C)Cc1ccccc1)C(C)(C)Cc1ccccc1")
"Compound NOT metabolized"
>>> assay_result("CC(C)NCC(O)COc1ccc(CCOCC2CC2)cc1 (stereo unspecified)")
"Compound NOT metabolized"
>>> assay_result("CC(=O)O[C@]1(C(C)=O)CC[C@H]2[C@@H]3C=C(C)C4=CC(=O)CC[C@]4(C)[C@H]3CC[C@@]21C [MEGESTROL ACETATE]")
"Compound NOT metabolized"
>>> assay_result("OC(CCN1CCCCC1)(c1ccccc1)C1CC2C=CC1C2 (stereo unspecified)")
"Compound NOT metabolized"
>>> assay_result("CC(C)(Oc1ccc(CCNC(=O)c2ccc(Cl)cc2)cc1)C(=O)O [BEZAFIBRATE]")
"Compound metabolized"
>>> assay_result("CC(CN(C)C)CN1c2ccccc2CCc2ccccc21.O=C(O)/C=C\\C(=O)O (stereo unspecified) [TRIMIPRAMINE MALEATE]")
"Compound NOT metabolized"
>>> assay_result("CN1CCC[C@@H]1CCO[C@](C)(c1ccccc1)c1ccc(Cl)cc1.O=C(O)/C=C/C(=O)O [CLEMASTINE FUMARATE]")
"Compound NOT metabolized"

* * *

# assay-text: The drug is tested on Clostridium sporogenes strain: ATCC15579 for biotransformation. The drug concentrations were measured before and after a 12-h incubation by liquid-chromatography-coupled mass spectrometry (LC–MS)
# run-conditions: 2 µM
measured-quantity: Bacterial Biotransformation

>>> assay_result("O=P(O)(O)O.c1ccc(CN(CC2=NCCN2)c2ccccc2)cc1 [ANTAZOLINE PHOSPHATE]")
"Compound NOT metabolized"
>>> assay_result("CCc1cccc2c3c([nH]c12)C(CC)(CC(=O)O)OCC3 (centres undefined)")
"Compound NOT metabolized"
>>> assay_result("CCN(CC)CCNC(=O)c1cc(Cl)c(N)cc1OC [METOCLOPRAMIDE]")
"Compound NOT metabolized"
>>> assay_result("NC(=O)N1c2ccccc2CC(=O)c2ccccc21 [OXCARBAZEPINE]")
"Compound metabolized"
>>> assay_result("Cc1cc2c(cc1S(N)(=O)=O)S(=O)(=O)CCC2")
"Compound NOT metabolized"
>>> assay_result("CC(C)[C@H]1CC[C@H](C(=O)N[C@H](Cc2ccccc2)C(=O)O)CC1 [NATEGLINIDE]")
"Compound NOT metabolized"
>>> assay_result("CCOC(=O)[C@H](CCc1ccccc1)N[C@H]1CCc2ccccc2N(CC(=O)O)C1=O")
"Compound metabolized"
>>> assay_result("CCCCC1=NC2(CCCC2)C(=O)N1Cc1ccc(-c2ccccc2-c2nnn[nH]2)cc1")
"Compound NOT metabolized"
>>> assay_result("O=C(Nc1ccccc1)OCC(CN1CCCCC1)OC(=O)Nc1ccccc1 (centres undefined)")
"Compound NOT metabolized"
>>> assay_result("CC(=O)OCC(CCn1cnc2cnc(N)nc21)COC(C)=O")
"Compound NOT metabolized"
>>> assay_result("CN1C(C(=O)Nc2ccccn2)=C(O)c2sccc2S1(=O)=O")
"Compound NOT metabolized"
>>> assay_result("OC(CCN1CCCCC1)(c1ccccc1)C1CC2C=CC1C2 (centres undefined)")
"Compound NOT metabolized"
>>> assay_result("CCc1nc(N)nc(N)c1-c1ccc(Cl)cc1")
"Compound NOT metabolized"
>>> assay_result("CC(C)NCC(O)COc1ccc(CC(N)=O)cc1 (centres undefined)")
"Compound NOT metabolized"
>>> assay_result("C#C[C@]1(OC(C)=O)CC[C@H]2[C@@H]3CCC4=C[C@@H](OC(C)=O)CC[C@@H]4[C@H]3CC[C@@]21C [ETHYNODIOL DIACETATE]")
"Compound NOT metabolized"
>>> assay_result("CN1CCN2c3ccccc3Cc3ccccc3C2C1 (centres undefined)")
"Compound NOT metabolized"
>>> assay_result("CSc1ccc2c(c1)C(N1CCN(C)CC1)Cc1ccccc1S2.O=C(O)/C=C\\C(=O)O (centres undefined)")
"Compound metabolized"
>>> assay_result("CN(C)CCc1c[nH]c2ccc(CS(=O)(=O)N3CCCC3)cc12")
"Compound NOT metabolized"
>>> assay_result("CCCCCNC(=N)N/N=C/c1c[nH]c2ccc(OC)cc12.O=C(O)/C=C\\C(=O)O [TEGASEROD MALEATE]")
"Compound NOT metabolized"

src = ChEMBL document CHEMBL5303573
